System: α-glucosidase from Saccharomyces sp.
Assay: α-glucosidase inhibitory activity assay (pNPG substrate, absorbance 405 nm)
Type: biochemical
Conditions: 50 μg/mL; - is no activity
Label scheme for Inhibition (%) α-glucosidase: lower than 40% is condition not met, 40% and above is condition met.

Molecule | Class
Nc1ccn([C@@H]2O[C@H](CO)[C@@H](O)[C@H]2O)c(=O)n1 | condition not met
O=C(O)C1OC(Oc2c(-c3ccc(O)c(O)c3)oc3cc(O)cc(O)c3c2=O)C(O)C(O)C1O (stereo not drawn) [compound 9, quercetin-3-O-glucuronide] | condition not met
O=C(/C=C/c1ccc(O)c(O)c1)O[C@@H]1C[C@@](OC(=O)/C=C/c2ccc(O)c(O)c2)(C(=O)O)C[C@@H](O)[C@@H]1O | condition not met
O=C(O)c1ccc(O)c(O)c1 | condition not met
O=C(/C=C/c1ccc(O)c(O)c1)O[C@@H]1C[C@](O)(C(=O)O)C[C@@H](OC(=O)/C=C/c2ccc(O)c(O)c2)[C@H]1O | condition met
O=C(/C=C/c1ccc(O)c(O)c1)O[C@@H]1C[C@](O)(C(=O)O)C[C@@H](O)[C@H]1O | condition not met

The measured values listed here are drawn from paper PMC6273932.
